From: patent US20100016366A1

biological target: human muscarinic M3 receptor (Homo sapiens, UniProt P20309); construct: expressed in transfected cells; host or cells: CHO (CHO-K1) cells; test: Cell based potency assessment, hM3 β-lactamase assay (CHO cell β-lactamase); details: CHO cells recombinantly expressing human M3, NFAT-β-lactamase reporter; inhibition of 80 nM carbamyl choline signal, 4 h; IC50 converted by Cheng-Prusoff
Sequence (P20309 whole entry): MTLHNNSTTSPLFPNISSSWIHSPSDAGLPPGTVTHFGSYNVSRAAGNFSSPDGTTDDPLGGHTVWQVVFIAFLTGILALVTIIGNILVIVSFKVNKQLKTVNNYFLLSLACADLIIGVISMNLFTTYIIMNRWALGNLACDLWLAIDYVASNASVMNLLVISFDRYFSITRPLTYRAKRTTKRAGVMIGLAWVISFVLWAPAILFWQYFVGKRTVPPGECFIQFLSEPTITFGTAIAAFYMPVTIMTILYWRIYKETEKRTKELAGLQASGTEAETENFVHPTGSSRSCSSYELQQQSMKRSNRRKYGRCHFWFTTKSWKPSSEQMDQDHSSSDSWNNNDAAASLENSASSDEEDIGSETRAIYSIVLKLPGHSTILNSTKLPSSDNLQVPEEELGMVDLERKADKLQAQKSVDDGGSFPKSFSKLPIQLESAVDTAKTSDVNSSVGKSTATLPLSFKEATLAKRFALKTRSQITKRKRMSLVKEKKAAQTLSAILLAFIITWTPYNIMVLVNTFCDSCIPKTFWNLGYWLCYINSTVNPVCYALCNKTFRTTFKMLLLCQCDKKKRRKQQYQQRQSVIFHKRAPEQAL
test.readout: Ki (nM)

| compound | study.target | Ki (nM) |
| --- | --- | --- |
| O=C(Nc1ccccc1-c1ccccc1)OC1CCN(CCCCCCCCCNCc2cccc(F)c2O)CC1 | human muscarinic M3 receptor (Homo sapiens, UniProt P20309) | 0.705 |
| O=C(Cc1ccc(O)c(F)c1)NCCCCCCCCCN1CCC(OC(=O)Nc2ccccc2-c2ccccc2)CC1 | human muscarinic M3 receptor (Homo sapiens, UniProt P20309) | 0.803 |
| O=C(Nc1ccccc1-c1ccccc1)OC1CCN(CCCCCCCCCNCc2cc(Cl)ccc2O)CC1 | human muscarinic M3 receptor (Homo sapiens, UniProt P20309) | 1.34 |
| O=C(Nc1ccccc1-c1ccccc1)OC1CCN(CCCCCCCCCNC(=O)c2ccc(O)cc2F)CC1 | human muscarinic M3 receptor (Homo sapiens, UniProt P20309) | 0.918 |
| O=C(Nc1ccccc1-c1ccccc1)OC1CCN(CCCCCCCCCNC(=O)c2ccc(O)cc2Cl)CC1 | human muscarinic M3 receptor (Homo sapiens, UniProt P20309) | 0.682 |
| O=C(Nc1ccccc1-c1ccccc1)OC1CCN(CCCCCCCCCNCc2ccc(Cl)c(O)c2Cl)CC1 | human muscarinic M3 receptor (Homo sapiens, UniProt P20309) | 1.12 |
| O=C(Nc1ccccc1-c1ccccc1)OC1CCN(CCCCCCCCCNCc2cc(Cl)cc(Cl)c2O)CC1 | human muscarinic M3 receptor (Homo sapiens, UniProt P20309) | 0.728 |
| O=C(Nc1ccccc1-c1ccccc1)OC1CCN(CCCCCCCCCNCc2ccc(O)c(Cl)c2)CC1 | human muscarinic M3 receptor (Homo sapiens, UniProt P20309) | 0.96 |
